Where these numbers come from: paper PMC6519732

# target.system: human recombinant HDAC1 (Homo sapiens)
# Sequence (Q13547 whole entry): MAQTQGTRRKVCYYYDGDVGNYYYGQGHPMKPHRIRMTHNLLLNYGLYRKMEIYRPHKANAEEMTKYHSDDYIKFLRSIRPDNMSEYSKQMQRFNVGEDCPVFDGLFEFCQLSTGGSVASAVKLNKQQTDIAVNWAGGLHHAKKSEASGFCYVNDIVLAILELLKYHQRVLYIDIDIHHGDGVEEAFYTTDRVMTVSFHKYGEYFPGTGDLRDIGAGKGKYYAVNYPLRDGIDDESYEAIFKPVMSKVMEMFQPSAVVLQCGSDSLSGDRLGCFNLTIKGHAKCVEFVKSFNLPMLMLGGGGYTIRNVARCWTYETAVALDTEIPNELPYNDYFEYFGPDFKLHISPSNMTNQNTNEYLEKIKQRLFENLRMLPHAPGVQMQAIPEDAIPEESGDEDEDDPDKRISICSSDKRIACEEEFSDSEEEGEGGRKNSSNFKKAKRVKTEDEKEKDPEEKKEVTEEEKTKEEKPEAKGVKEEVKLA
# method.notes: In vitro HDAC1 inhibition, fluorogenic ZMAL assay
recorded.metric: pIC50
In plain terms, pIC50 is the concentration in mol/L turned into minus its base-10 logarithm.

For orientation, consider the following solved cases.
molecule	target.system	recorded.metric	test.value
O=C(NO)c1ccc(CN2N=C(Cl)C=C3Sc4ccccc4N=C32)cc1 [Compound 10q]	human recombinant HDAC1 (Homo sapiens)	pIC50	5.34
O=C(NO)c1ccc(CN2c3cccnc3Sc3cccnc32)cc1 [Compound 7l]	human recombinant HDAC1 (Homo sapiens)	pIC50	5.47
O=C(NO)c1ccc(CN2N=CC=C3Sc4ccccc4N=C32)cc1 [Compound 10p]	human recombinant HDAC1 (Homo sapiens)	pIC50	6.12

Input: Look up pIC50 of O=C(NO)c1ccc(N2c3ccccc3Sc3ccccc32)cc1 [Compound 18] and report it.
Output: 5.23

Input: Look up pIC50 of O=C(NO)c1ccc(CN2c3ccccc3Sc3ccncc32)cc1 [Compound 7j] and report it.
Output: 5.90

Input: Look up pIC50 of O=C(NO)c1ccc(CN2c3ccccc3Sc3nccnc32)cc1 [Compound 7k] and report it.
Output: 5.42

Input: Look up pIC50 of O=C(NO)c1ccc(CN2c3ccccc3Sc3ccnnc32)cc1 [Compound 7p] and report it.
Output: 5.97

Input: Look up pIC50 of Cc1nc2c(s1)Sc1ccccc1N2Cc1ccc(C(=O)NO)cc1 [Compound 7o] and report it.
Output: 5.30

Input: Look up pIC50 of O=C(NO)c1ccc(CCN2c3ccccc3Sc3ccccc32)cc1 [Compound 22] and report it.
Output: 4.93

Input: Look up pIC50 of O=C(NO)c1ccc(CN2c3ccccc3Sc3cc(Cl)nnc32)cc1 [Compound 7q] and report it.
Output: 5.97

Input: Look up pIC50 of O=C(NO)c1ccc(CN2c3ccncc3Sc3ccncc32)cc1 [Compound 7m] and report it.
Output: 6.10

----------
# target.system: human recombinant HDAC6 (Homo sapiens)
# Sequence (Q9UBN7 whole entry): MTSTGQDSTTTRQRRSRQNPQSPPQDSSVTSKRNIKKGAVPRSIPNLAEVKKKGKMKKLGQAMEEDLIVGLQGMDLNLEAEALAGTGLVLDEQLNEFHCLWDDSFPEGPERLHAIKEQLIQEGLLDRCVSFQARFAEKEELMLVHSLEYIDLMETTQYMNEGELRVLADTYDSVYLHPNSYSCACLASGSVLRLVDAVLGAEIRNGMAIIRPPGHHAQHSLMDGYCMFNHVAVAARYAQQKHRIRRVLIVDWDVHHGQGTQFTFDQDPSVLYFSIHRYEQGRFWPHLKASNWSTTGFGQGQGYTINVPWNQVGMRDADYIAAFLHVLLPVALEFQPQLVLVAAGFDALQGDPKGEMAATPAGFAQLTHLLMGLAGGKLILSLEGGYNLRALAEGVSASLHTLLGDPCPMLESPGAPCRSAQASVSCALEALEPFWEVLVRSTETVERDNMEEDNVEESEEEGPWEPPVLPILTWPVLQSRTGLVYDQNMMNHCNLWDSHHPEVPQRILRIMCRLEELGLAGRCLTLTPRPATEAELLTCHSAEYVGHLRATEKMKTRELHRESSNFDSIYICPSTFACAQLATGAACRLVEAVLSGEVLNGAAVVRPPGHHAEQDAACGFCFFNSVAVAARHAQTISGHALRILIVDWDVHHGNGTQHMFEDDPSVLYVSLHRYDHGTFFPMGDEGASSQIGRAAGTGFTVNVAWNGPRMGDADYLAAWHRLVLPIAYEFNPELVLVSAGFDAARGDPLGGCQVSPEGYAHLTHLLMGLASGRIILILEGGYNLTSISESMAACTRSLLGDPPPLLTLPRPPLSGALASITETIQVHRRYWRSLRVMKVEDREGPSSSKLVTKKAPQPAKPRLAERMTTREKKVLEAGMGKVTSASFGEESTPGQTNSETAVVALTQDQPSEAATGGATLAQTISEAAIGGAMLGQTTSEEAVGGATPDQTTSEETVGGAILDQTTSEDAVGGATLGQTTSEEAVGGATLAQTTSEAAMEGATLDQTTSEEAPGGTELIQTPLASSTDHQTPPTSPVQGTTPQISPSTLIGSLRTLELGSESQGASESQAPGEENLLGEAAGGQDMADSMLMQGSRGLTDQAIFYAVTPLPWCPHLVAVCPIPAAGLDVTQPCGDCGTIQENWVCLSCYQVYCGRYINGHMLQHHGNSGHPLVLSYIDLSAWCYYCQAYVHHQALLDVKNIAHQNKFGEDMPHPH
# Format: biochemical
# test.conditions: IC50(HDAC1)/IC50(HDAC6)
Property: SF 1/6, selectivity factor for HDAC6 over HDAC1; scope: individual compounds
// keep it numeric: no unit symbol after the value

For orientation, consider the following solved cases.
compound	test.value
Cc1nc2c(s1)Sc1ccccc1N2Cc1ccc(C(=O)NO)cc1 [Compound 7o]	136
O=C(NO)c1ccc(CN2c3cccnc3Sc3cccnc32)cc1 [Compound 7l]	242
O=C(NO)c1ccc(N2c3ccccc3Sc3ccccc32)cc1 [Compound 18]	2
O=C(NO)c1ccc(CN2c3ccccc3Sc3nccnc32)cc1 [Compound 7k]	226

Input: Look up SF 1/6, selectivity factor for HDAC6 over HDAC1 of O=C(NO)c1ccc(CCN2c3ccccc3Sc3ccccc32)cc1 [Compound 22] and report it.
Output: 86

Input: Look up SF 1/6, selectivity factor for HDAC6 over HDAC1 of O=C(NO)c1ccc(CN2c3ccccc3Sc3ccncc32)cc1 [Compound 7j] and report it.
Output: 179
